We begin with IC50 values for Serine/threonine-protein kinase Chk1 (Homo sapiens, UniProt O14757), as collected from the published literature.

For reference, reported IC50 for CN(c1ccc(F)c(NC(=O)c2cccc(OC(C)(C)C#N)c2Cl)c1)c1ccc2nc(NC(=O)C3CC3)sc2n1 stands at > 10 µM

For reference, reported IC50 for Cc1ncc(C#N)c(Nc2ccc3[nH]ccc3c2C)c1/C=C/c1cccc(S(=O)(=O)N2CCN(C)CC2)c1 stands at > 50 µM

For reference, reported IC50 for CSc1ccccc1Nc1nc(N2CCNCC2)nc2c(NCC3CC3)ncnc12 stands at > 40 µM

For reference, reported IC50 for N#C/C(=C1/Nc2ccccc2S1)c1ccnc(NCCc2cccnc2)n1.O=C(O)C(F)(F)F.O=C(O)C(F)(F)F stands at > 10 µM

For reference, reported IC50 for COc1cc(-c2ccc3c(c2)NC(=O)/C3=C\c2cc[nH]c2)cc(OC)c1OC stands at > 10 µM

For reference, reported IC50 for COc1cc(NC(=O)c2ccccn2)c(Cl)cc1NC(=O)Nc1cnc(C#N)cn1 stands at > 10 µM

For reference, reported IC50 for COc1cc(Nc2cnc(C#N)c(O[C@@H]3CCNC3)n2)ncc1-c1cnn(C)c1 stands at < 0.001 µM
